Test: chemical genetic growth profiling, strain panel (AID 1159580);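 further: tested at 20 µM; growth read once vehicle control cultures reached saturation at 30 °C; 1 = growth at the plate median or of vehicle wells; lower values mean less growth of the strain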
Conditions: S. cerevisiae deletion strains, growth OD, locus YGR135W, strain pre9, active compounds read low
Out of some 5,500 compounds screened, about 2,000 (36%) were called active. Not shown: some 18% with an inconclusive outcome. The list shows a part of the results.
Measured Parameter: normalized growth
One number for each entry.

Example molecules with recorded normalized growth:
| Molecule | Observed Value |
| --- | --- |
| CN=C1CN(O)C(c2ccccc2)=c2cc(Cl)ccc2=N1 | 0.955 |
| COc1cc2c3cc1Oc1cc(ccc1O)OC1c4c(cc(OC)c(O)c4Oc4ccc(cc4)CC3N(C)CC2)CCN1C (stereo not drawn) | 0.991 |
| C[C@](N)(Cc1ccc(O)c(O)c1)C(=O)O | 0.973 |
| NC(=O)N/N=C\c1ccc([N+](=O)[O-])o1 | 0.989 |
| COP(=S)(OC)Oc1ccc(SC)c(C)c1 | 0.987 |
| CCC(CCC(C)C1CCC2C3CC=C4C[C@@H](OC(C)=O)CC[C@]4(C)C3CC[C@]12C)C(C)C (stereo partly drawn) | 0.945 |
| CCCCC(CC)CN=C(N)NC(N)=NCCCCCCN=C(N)NC(N)=NCC(CC)CCCC (stereo not drawn) | 0.0595 |
| CC(Cc1ccc(O)c(O)c1)(NN)C(=O)O (stereo not drawn) | 1.01 |
| CC(=O)O[C@H]1CC[C@@]2(C)C(=CCC3C2CC[C@]2(C)C(=O)CCC32)C1 (stereo partly drawn) | 0.884 |
| O=C1O[C@@H](CO)[C@H](O)[C@@H](O)[C@@H]1O | 1.05 |

Here are 4 molecules. What values of normalized growth were reported for them?
1. COc1cc2c(cc1O)CC1c3c(cc(O)c(OC)c3-2)CCN1C (stereo not drawn)
2. O=C1OCCN1/N=C\c1ccc([N+](=O)[O-])o1
3. O=C1CN(/N=C\c2ccc([N+](=O)[O-])o2)C(=O)N1
4. COS(C)(=O)=O

Output:
[0.986, 0.936, 0.963, 0.966]

Lab note: each molecule below needs its normalized growth filled in.
1. CCn1cc(C(=O)O)c(=O)c2ccc(C)nc21
2. COc1ccc(-c2cc(C(F)F)nn2-c2ccc(S(N)(=O)=O)cc2)cc1F

Output:
[0.916, 0.982]

###

Experiment: chemical genetic growth profiling, strain panel (AID 1159580)
Settings: S. cerevisiae deletion strains, growth OD, locus YGL253W, strain hxk2
Screen size: about 5,500 compounds; about 2,000 (36%) were called active. About 18% were inconclusive and are not listed. Rule as the data show it: active = normalized growth mostly below about 0.91 (no sharp cut-off); inconclusive = no clear call, values can overlap the other calls; inactive = mostly above about 0.92. Some of the results follow.
Form entry, call: pick from active, inactive

| Compound | Discrete Label |
| --- | --- |
| CC[C@@H](C(=O)[C@@H](C)[C@@H](O)[C@H](C)[C@@H]1O[C@@H]([C@@H](CC)C(=O)O)CC[C@@H]1C)[C@H]1OC2(C=C[C@@H](O)[C@]3(CC[C@@](C)([C@H]4CC[C@](O)(CC)[C@H](C)O4)O3)O2)[C@H](C)C[C@@H]1C (some centres undefined) | active |
| CC(=O)O[C@H]1CC[C@@]2(C)C(=CCC3C2CC[C@]2(C)C(=O)CCC32)C1 (some centres undefined) | inactive |
| CCOC(N)=O | inactive |
| CC(=O)O[C@H]1C[C@@H](OC(C)=O)C(C)(C)C2C[C@@H](OC(C)=O)[C@]3(C)C(CC[C@@]4(C)[C@H](c5ccoc5)C(=O)[C@H]5O[C@]543)[C@]21C (some centres undefined) | inactive |
| C[C@@H]1C[C@@H]([C@H](O)CC2CC(=O)NC(=O)C2)C(=O)[C@@H](C)C1 | active |
| COC(=O)[C@H]1[C@H]2C[C@@H]3c4[nH]c5cc(OC)ccc5c4CCN3C[C@H]2C[C@@H](OC(=O)c2cc(OC)c(OC)c(OC)c2)[C@@H]1OC | inactive |
| O=C1CN(/N=C\c2ccc([N+](=O)[O-])o2)C(=O)N1 | inactive |
| NCCCCN=C(N)N | inactive |

Input: Given `O=C(O)c1ccc2c(c1)OCO2` , state the outcome it received in this test.
Output: inactive

Input: What do you get for `COc1ccc(/C=C/C(=O)c2ccc(O)cc2O)cc1` ?
Output: active

Input: Moving on to the next compound: `O=C1OCCN1/N=C\c1ccc([N+](=O)[O-])o1`
Output: inactive

Input: Let us now turn to `COc1ccc(C=CC(=O)c2ccc(O)cc2O)cc1OC`
Output: active

Input: And for C[C@@H]1CC2C3CCC4=CC(=O)C=C[C@]4(C)[C@@]3(F)[C@@H](O)C[C@]2(C)[C@@]1(O)C(=O)COP(=O)(O)O (some centres undefined) ?
Output: inactive

Input: Then this compound: `c1ccc2[nH]c(-c3cscn3)nc2c1`
Output: inactive

###

Please go through the items and note down their normalized growth.
Assay: chemical genetic growth profiling, strain panel (AID 1159580)
Settings: S. cerevisiae deletion strains, growth OD, locus YJR016C, strain ILV3, active compounds read low
Screen size: about 5,500 compounds; about 2,000 (36%) were called active. Inconclusive results (about 18%) are left out. Some of the results follow.
One number for each entry.

| Compound | normalized growth |
| --- | --- |
| CC12CC[C@@H](O)CC1=CC[C@@H]1C2CCC2(C)C(=O)CC[C@@H]12 (stereo partly specified) | 1.02 |
| CSc1c(C#N)c(-c2ccc(Cl)cc2)nn1C(=O)c1ccccc1Cl | 0.945 |
| CC1(C)C/C(=N/Nc2ccc(C(F)(F)F)cc2)c2cc(C(C)(C)C)c(O)c(O)c2O1 | 0.991 |
| O=C(NCc1ccco1)c1csc(C2COc3ccccc3O2)n1 (stereo unspecified) | 0.904 |

List the reported normalized growth of each compound below.
1. N=C(N)SCc1nc(-c2ccc(Cl)cc2)no1
2. COc1cc(Cl)c(NS(=O)(=O)c2cc(Br)c(Br)s2)c(OC)c1

Output:
1. 0.987
2. 0.972

###

Assay: chemical genetic growth profiling, strain panel (AID 1159580);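 further: tested at 20 µM; growth read once vehicle control cultures reached saturation at 30 °C; 1 = growth at the plate median or of vehicle wells; lower values mean less growth of the strain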
Settings: S. cerevisiae deletion strains, growth OD, locus YHR082C, strain KSP1
About 2,000 (36%) of roughly 5,500 compounds were called active. Not shown: some 18% with an inconclusive outcome. No stated cut-off is given here; in the data, active means normalized growth mostly below about 0.91 (no sharp cut-off); inconclusive means no clear call, values can overlap the other calls; inactive means mostly above about 0.92. Some of the results follow.
// classify into YES = active, NO = inactive

Below are worked cases with known answers.
| Compound | Discrete Label |
| --- | --- |
| COc1ccccc1NC(=O)Nc1nn(C)c2cccc(OC)c12 | NO |
| CSc1c(C#N)c(-c2ccc(Cl)cc2)nn1C(=O)c1ccccc1Cl | NO |

Input: Check the results log: what was the call for `C/C(=N/OC(=O)Nc1ccc(Cl)cc1)c1ccc2c(c1)CCO2` ?
Output: NO

Input: What do we get for `COc1cc(C(=O)Oc2c(Cl)cc(Cl)cc2C=Nc2cccc([N+](=O)[O-])c2)cc(OC)c1OC` ?
Output: YES

Input: # iterate: COc1ccccc1C(C[N+](=O)[O-])c1c(N)n(C)c(=O)n(C)c1=O (configuration not stated)
Output: YES

Input: Same thing, different compound: `N/C(=N/OC(=O)c1ccc(Cl)cc1)c1ccc(F)cc1F`
Output: YES

Input: // same read-out, input: `N=C(N)SCc1nc(-c2ccc(Cl)cc2)no1`
Output: NO

Input: Would you kindly repeat that for `CCCCCc1ccc(S(=O)(=O)Nc2ccc3c(c2)C(=O)OC3)cc1` ?
Output: NO

###

Test: chemical genetic growth profiling, strain panel (AID 1159580);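 further: tested at 20 µM; growth read once vehicle control cultures reached saturation at 30 °C; 1 = growth at the plate median or of vehicle wells; lower values mean less growth of the strain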
Conditions: S. cerevisiae deletion strains, growth OD, locus YLR384C, strain iki3
Among all 5,500 compounds or so, about 2,000 (36%) were called active. About 18% were inconclusive and are not listed. Cut-off read from the data, not from the text of the source: active = normalized growth mostly below about 0.91 (no sharp cut-off); inconclusive = no clear call, values can overlap the other calls; inactive = mostly above about 0.92. The list shows a part of the results.
Log the outcome using a class from class 1 for active, class 0 for inactive

Use the examples below as a reference point.
| Compound | Discrete Label |
| --- | --- |
| CC1(C)O[C@@H]2CC3C4CCC5=CC(=O)C=C[C@]5(C)C4[C@@H](O)C[C@]3(C)[C@]2(C(=O)CO)O1 (some centres undefined) | class 0 |
| O=C(O)CCCCC1SCC2NC(=O)NC21 (centres undefined) | class 0 |
| COC(=O)[C@H]1[C@H]2C[C@@H]3c4[nH]c5cc(OC)ccc5c4CCN3C[C@H]2C[C@@H](OC(=O)c2cc(OC)c(OC)c(OC)c2)[C@@H]1OC | class 0 |

Input: Hello, I am checking results. What call was entered for CC1(C)C2CC(=O)O[C@@]3(C)C4=CC(=O)O[C@@H](c5ccoc5)[C@]4(C)CCC3[C@@]2(C)C=C[C@H]1O (some centres undefined) ?
Output: class 0

###

Experiment: chemical genetic growth profiling, strain panel (AID 1159580);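 further: tested at 20 µM; growth read once vehicle control cultures reached saturation at 30 °C; 1 = growth at the plate median or of vehicle wells; lower values mean less growth of the strain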
Details: S. cerevisiae deletion strains, growth OD, locus YNL298W, strain CLA4
The campaign covered roughly 5,500 compounds. About 2,000 (36%) were called active. Another 18% or so got no clear call; they are omitted. No stated cut-off is given here; in the data, active means normalized growth mostly below about 0.91 (no sharp cut-off); inconclusive means no clear call, values can overlap the other calls; inactive means mostly above about 0.92. The list shows a part of the results.
Would you mind answering with one of these outcomes? active, inactive

| Molecule | Discrete Label |
| --- | --- |
| COc1c(C(=O)O)ccc2c1CCC(C)(C)O2 | inactive |
| CN(Cc1cnc2nc(N)nc(N)c2n1)c1ccc(C(=O)NC(CCC(=O)O)C(=O)O)cc1 (stereo unspecified) | active |
| CC(=O)O[C@H]1CC[C@@]2(C)C(=CCC3C2CC[C@@]2(C)C3CC[C@@H]2C(C)CCCC(C)C)C1 (stereo partly specified) | inactive |
| C[C@@H]1C[C@@H]([C@H](O)CC2CC(=O)NC(=O)C2)C(=O)[C@@H](C)C1 | active |
| COc1c(C2COc3cc4c(cc3C2=O)CC(O)C(C)(C)O4)ccc2c1CCC(C)(C)O2 (stereo unspecified) | inactive |
| NCc1ccc(S(N)(=O)=O)cc1 | inactive |

Input: Returns: the outcome recorded for CC12CCC3C(CC=C4CC(O)CCC43C)C1CCC2=O (stereo unspecified) in this assay.
Output: inactive

Input: // same read-out, input: `CC12CCC(CC1)C(C)(C)O2`
Output: inactive

Input: Now this one: `S=c1[nH]c2ccccc2s1`
Output: inactive

Input: For `COc1ccc(-c2cc(C(F)F)nn2-c2ccc(S(N)(=O)=O)cc2)cc1F` then?
Output: inactive

Input: Let us now turn to CCC(CCC(C)C1CCC2C3CC=C4C[C@@H](OC(C)=O)CC[C@]4(C)C3CC[C@]12C)C(C)C (stereo partly specified)
Output: inactive
